# SYSTEM_TESTED: TLR9 (Homo sapiens)
# PROCEDURE_TEXT: HEK293-Blue-hTLR-9 cells assay (SEAP reporter, ODN2006 stimulation)
# Assay type: cell-based
# Design: host or cells: HEK293 (HEK-Blue hTLR9)
# CONDITION_DETAILS: HEK293-Blue-hTLR9 cells, ODN2006, 20 hrs; read-out: HEK/hTLR9 IC50
# Protocol: The following tests were carried out in order to determine the activity of the compounds of formula (I) and (Ia) in HEK293-Blue-hTLR-7/8/9 cells assay. A stable HEK293-Blue-hTLR-9 cell line was purchased from InvivoGen (Cat. #: hkb-htlr9, San Diego, California, USA). These cells were originally designed for studying the stimulation of human TLR9 by monitoring the activation of NF-κB. […]
Mark yes (1) only for IC50 values smaller than 100 nM; exact matches and larger values are no (0).

> print(dat)
                                    molecule  classification
 1  Cc1cc(N2Cc3ccc(N4CCNCC4)nc3[C@@H](C)C2)c2cnn(C)c2n1          no (0)
 2  C[C@H]1CN(c2ccnc3c2cnn3C)Cc2ccc(OCCN3CCNCC3)cc21          no (0)
 3  Cc1cc(N2Cc3ccc(OC[C@@H]4CNCCN4)cc3[C@@H](C)C2)c2cnn(C)c2n1          no (0)
 4  C[C@H]1CN(c2ccnc3c2cnn3C)Cc2ccc(N3CC4CNC[C@H]4C3=O)cc21 (relative stereo)          no (0)
 5  Cc1cc(N2Cc3ccc(N4CCC(C)(N)CC4)nc3[C@@H](C)C2)c2cnn(C)c2n1          no (0)
 6  C[C@H]1CN(c2ccnc3c2cnn3C)Cc2ccc(OC[C@@H]3CNCCN3C)cc21          no (0)
 7  Cc1cc(N2Cc3ccc(N4C[C@@H](F)[C@@H](N)C4)nc3[C@@H](C)C2)c2cnn(C)c2n1          no (0)
 8  C[C@H]1CN(c2ccnc3c2cnn3C)Cc2ccc(N3CC4(CCNC4)CC3=O)cc21 (stereo partly shown)          no (0)
 9  C[C@H]1CN(c2ccnc3c2cnn3C)Cc2ccc(N3CCNC(CO)C3)cc21 (stereo partly shown)          no (0)
10  Cn1ncc2c(N3Cc4ccc(N5CCC6(CCNCC6)CC5)cc4C(C)(C)C3)ccnc21          no (0)
11  C[C@H]1CN(c2ccnc3c2cnn3C)Cc2ccc(N3CCN(S(=O)(=O)C4CCNC4)CC3)cc21 (stereo partly shown)          no (0)
12  C[C@H]1CN(c2ccnc3c2cnn3C)Cc2ccc(OC3CN(C4CCNCC4)C3)cc21         yes (1)
13  C[C@H]1CN(c2ccnc3c2cnn3C)Cc2ccc(N3CC4(CCNCC4)CC3=O)cc21         yes (1)
14  C[C@H]1CN(c2ccnc3c2cnn3C)Cc2ccc(N3C[C@@H](N)[C@H](O)C3)cc21          no (0)
15  C[C@H]1CN(c2ccnc3c2cnn3C)Cc2ccc(N3CCN(C(=O)C4CCCN4)CC3)cc21 (stereo partly shown)          no (0)
16  C[C@H]1CN(c2ccnc3c2cnn3C)Cc2ccc(N3CC4(CCNCC4)OC3=O)cc21         yes (1)

====

# SYSTEM_TESTED: human TLR7 (Homo sapiens, UniProt Q9NYK1)
# Sequence (Q9NYK1 27-1049): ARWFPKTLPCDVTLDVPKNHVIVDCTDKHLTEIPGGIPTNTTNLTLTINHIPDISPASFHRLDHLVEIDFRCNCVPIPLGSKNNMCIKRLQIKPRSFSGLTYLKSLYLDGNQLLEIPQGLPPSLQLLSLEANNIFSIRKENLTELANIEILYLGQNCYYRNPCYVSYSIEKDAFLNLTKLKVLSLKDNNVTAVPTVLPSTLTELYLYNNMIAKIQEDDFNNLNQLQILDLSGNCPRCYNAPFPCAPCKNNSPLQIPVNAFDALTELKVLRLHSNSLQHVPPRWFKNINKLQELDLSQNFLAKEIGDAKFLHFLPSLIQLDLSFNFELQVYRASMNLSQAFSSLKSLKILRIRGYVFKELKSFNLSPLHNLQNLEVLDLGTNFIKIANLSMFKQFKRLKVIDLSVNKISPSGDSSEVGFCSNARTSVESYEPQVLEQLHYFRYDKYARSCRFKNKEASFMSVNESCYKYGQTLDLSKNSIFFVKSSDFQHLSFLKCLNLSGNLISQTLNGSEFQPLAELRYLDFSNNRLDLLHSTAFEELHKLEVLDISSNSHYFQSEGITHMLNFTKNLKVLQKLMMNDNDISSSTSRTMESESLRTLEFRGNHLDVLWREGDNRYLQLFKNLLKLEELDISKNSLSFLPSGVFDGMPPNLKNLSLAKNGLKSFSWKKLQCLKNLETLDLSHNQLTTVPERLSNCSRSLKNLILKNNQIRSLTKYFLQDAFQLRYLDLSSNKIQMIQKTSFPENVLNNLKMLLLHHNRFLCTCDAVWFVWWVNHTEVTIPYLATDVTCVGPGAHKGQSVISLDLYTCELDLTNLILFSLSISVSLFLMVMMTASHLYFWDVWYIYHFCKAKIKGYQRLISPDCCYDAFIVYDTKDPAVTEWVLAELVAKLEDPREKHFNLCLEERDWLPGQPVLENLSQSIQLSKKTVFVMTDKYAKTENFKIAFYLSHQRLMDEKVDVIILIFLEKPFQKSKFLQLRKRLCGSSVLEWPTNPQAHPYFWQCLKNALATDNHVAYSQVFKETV
# PROCEDURE_TEXT: HEK293-Blue-hTLR-7 cells assay (SEAP reporter, R848 stimulation)
# CONDITION_DETAILS: HEK293-Blue-hTLR7 cells, R848, 20 hrs; read-out: HEK/hTLR7 IC50
# Method: The following tests were carried out in order to determine the activity of the compounds of formula (I) and (Ia) in HEK293-Blue-hTLR-7/8/9 cells assay. A stable HEK293-Blue-hTLR-7 cell line was purchased from InvivoGen (Cat. #: hkb-htlr7, San Diego, California, USA). These cells were originally designed for studying the stimulation of human TLR7 by monitoring the activation of NF-κB. […]
As shown below, each of these compounds has a reported IC50 value.
OBSERVED_PROPERTY: IC50 (nM)

> print(dat)
                                   compound  observed.property  measured.number
1  Cc1cc(N2Cc3ccc(N4CC5(CNCCO5)C4)cc3[C@@H](C)C2)c2cnn(C)c2n1               IC50               13
2  C[C@H]1CN(c2ccnc3c2cnn3C)Cc2ccc(N3CCNCC3)nc21               IC50                5
3  Cc1cc(N2Cc3cnc(N4CCNC5(CC5)C4)cc3[C@@H](C)C2)c2cnn(C)c2n1               IC50               10
4  C[C@H]1CN(c2ccnc3c2cnn3C)Cc2ccc(OC[C@@H]3CNCCN3C)cc21               IC50               15
5  Cc1cc(N2Cc3ccc(N4CCNCC4)cc3[C@@H](C)C2)c2cnn(C)c2n1               IC50                8
6  C[C@H]1CN(c2ccnc3c2cnn3C)Cc2ccc(N3CCN(C(=O)C4CCCN4)CC3)cc21 (some centres unmarked)               IC50                6
7  Cc1cc(N2Cc3ccc(N4CCC(O)(CN(C)C)CC4)cc3[C@@H](C)C2)c2cnn(C)c2n1               IC50                8
8  C[C@H]1CN(c2ccnc3c2cnn3C)Cc2ccc(N3CCN(C(=O)C4CCNCC4)CC3)cc21               IC50               18

====

# SYSTEM_TESTED: TLR9 (Homo sapiens, UniProt Q9NR96)
# Sequence (Q9NR96 26-1032): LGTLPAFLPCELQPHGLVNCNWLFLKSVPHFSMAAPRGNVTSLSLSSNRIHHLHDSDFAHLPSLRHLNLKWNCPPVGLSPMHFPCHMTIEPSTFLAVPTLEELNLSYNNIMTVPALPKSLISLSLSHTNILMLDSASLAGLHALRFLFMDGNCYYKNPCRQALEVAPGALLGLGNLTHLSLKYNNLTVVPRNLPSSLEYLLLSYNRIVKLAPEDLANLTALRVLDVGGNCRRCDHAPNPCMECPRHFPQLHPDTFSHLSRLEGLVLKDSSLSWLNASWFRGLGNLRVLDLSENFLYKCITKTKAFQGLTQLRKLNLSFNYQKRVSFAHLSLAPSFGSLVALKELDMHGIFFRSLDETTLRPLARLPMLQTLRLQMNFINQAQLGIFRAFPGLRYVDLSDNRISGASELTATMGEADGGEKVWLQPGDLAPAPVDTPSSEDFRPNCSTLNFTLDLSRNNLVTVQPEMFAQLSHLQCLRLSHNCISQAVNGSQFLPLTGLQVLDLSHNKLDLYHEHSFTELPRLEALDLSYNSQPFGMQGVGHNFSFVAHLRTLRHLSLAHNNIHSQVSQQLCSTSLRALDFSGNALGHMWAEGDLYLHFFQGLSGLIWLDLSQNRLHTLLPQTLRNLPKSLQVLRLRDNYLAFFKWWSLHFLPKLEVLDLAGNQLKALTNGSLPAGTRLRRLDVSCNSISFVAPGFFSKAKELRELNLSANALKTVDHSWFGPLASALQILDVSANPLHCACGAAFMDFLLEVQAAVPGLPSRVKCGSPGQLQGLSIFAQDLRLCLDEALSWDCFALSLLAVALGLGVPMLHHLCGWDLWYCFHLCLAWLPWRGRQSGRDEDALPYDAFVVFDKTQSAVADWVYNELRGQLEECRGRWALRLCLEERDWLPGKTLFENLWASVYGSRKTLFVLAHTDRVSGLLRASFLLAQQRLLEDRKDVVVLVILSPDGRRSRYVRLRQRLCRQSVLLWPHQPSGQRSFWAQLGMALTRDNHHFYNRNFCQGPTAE
# PROCEDURE_TEXT: HEK293-Blue-hTLR-9 cells assay (SEAP reporter, ODN2006 stimulation)
# Assay type: cell-based
# Design: host or cells: HEK293 (HEK-Blue hTLR9)
# CONDITION_DETAILS: HEK293-Blue-hTLR9 cells, ODN2006, 20 hrs; read-out: HEK/hTLR9 IC50
A collection of compounds and their measured IC50
OBSERVED_PROPERTY: IC50 (nM)

> print(dat)
                                   compound  measured.number
1  Cc1cc(N2Cc3ccc(N4CCC5(CCNCC5)CC4)cc3C(C)C2)c2cnn(C)c2n1 (stereo not shown) [Example 5]              123
2  Cc1cc(N2Cc3ccc(N4CCC(O)(CN(C)C)CC4)cc3[C@@H](C)C2)c2cnn(C)c2n1 [Example 14]              158
3  Cc1cc(N2Cc3ccc(N4CCC(N)CC4)nc3[C@@H](C)C2)c2cnn(C)c2n1 [Example 58]              199
4  C[C@H]1CN(c2ccnc3c2cnn3C)Cc2ccc(N3CCN[C@@H](CO)C3)cc21 [Example 50]              376

====

Overview of recorded IC50 for various compounds
# SYSTEM_TESTED: TLR9 (Homo sapiens, UniProt Q9NR96)
# PROCEDURE_TEXT: Human PBMC cell-based assay (CpG ODN 2216 stimulation)
# Design: These cells express TLR7, TLR8, or TLR9, and therefore are natural responders to respective ligand stimulation; endogenous in cells; host or cells: human PBMC from healthy donor whole blood
# CONDITION_DETAILS: CpG ODN 2216 at 1 μM, overnight, read-out: hPBMC/TLR9 IC50
OBSERVED_PROPERTY: IC50 (nM)

> print(dat)
                                    compound  measured.number
 1  C[C@H]1CN(c2ccnc3c2cnn3C)Cc2ccc(OC[C@@H]3CNCCN3)cc21              395
 2  CO[C@H]1CN(c2ccc3c(n2)[C@@H](C)CN(c2cc(C)nc4c2cnn4C)C3)CC[C@@H]1N              371
 3  Cc1cc(N2Cc3ccc(OC[C@@H]4CNCCN4)cc3[C@@H](C)C2)c2cnn(C)c2n1              214
 4  CO[C@H]1CN(c2cc3c(cn2)CN(c2cc(C)nc4c2cnn4C)C[C@@H]3C)CC[C@@H]1N              340
 5  CC1CN(c2ccnc3c2cnn3C)Cc2ccc(N3CCC4(CCNCC4)CC3)cc21 (stereo not shown)              265
 6  C[C@H]1CN(c2ccnc3c2cnn3C)Cc2ccc(OC[C@H]3CNCCN3)cc21              365
 7  C[C@H]1CN(c2ccnc3c2cnn3C)Cc2ccc(N3CCC(N4CC(N)C4)CC3)cc21              271
 8  C[C@H]1CN(c2ccnc3c2cnn3C)Cc2ccc(OC3CN(C4CCNCC4)C3)cc21              286
 9  C[C@H]1CN(c2ccnc3c2cnn3C)Cc2ccc(N3CCNCC3)cc21              396
10  Cc1cc(N2Cc3ccc(N4CCC(N)CC4)nc3[C@@H](C)C2)c2cnn(C)c2n1              277
